Test system: transactivating tegument protein VP16 (Human herpesvirus 1)
Test: VP16 transactivation reporter inhibitors, counter-screen for SRC2 inhibitor project, cell-based, luminescence, single concentration (AID 652007)
Settings: cell-based VP16 transactivation luciferase reporter, at 8.9 µM
Active and inactive are the calls of the source. No stated cut-off is given here; in the data, active means inhibition above about 36%; inactive means the rest.
Labels: active, inactive

# molecule-smiles, discrete-label
data = [
    ("O=S(=O)(C/C(=C/CO)S(=O)(=O)c1ccccc1)c1ccccc1", "active"),
    ("Cc1ccc(C)c(OCc2ccc(C(=O)Nc3ccc([N+](=O)[O-])cn3)o2)c1", "inactive"),
    ("CC(C)c1ccc(/C=C/C(=O)N2CCCCCC2)cc1", "inactive"),
    ("Cn1cc(C(=O)N/N=C/c2c(O)ccc3ccccc23)ccc1=O", "inactive"),
    ("COc1ccc(/C=C/c2nc3ccccc3c(=O)o2)cc1", "active"),
    ("COc1cccc(C(=O)c2sc(NC(C)C)nc2N)c1", "inactive"),
    ("Cc1ccc(C(=O)NNC(=O)CCCN2C(=O)/C(=C/c3ccccc3Cl)SC2=S)cc1", "active"),
    ("Cc1sc2ncnc(N3CCC(C(=O)N(C)CC(=O)Nc4cccc(F)c4)CC3)c2c1C", "inactive"),
    ("O=C(/C=C/c1cn(-c2ccccc2)nc1-c1cccnc1)c1ccco1", "inactive"),
]

Source: PubChem BioAssay
